Counter-ions that a name gives are not always drawn.
Overview of recorded melting point for various molecules
Measured endpoint: melting point

{"Molecule": "Cl.O=C1CCC(Nc2ncc3cc(-c4ccccc4Cl)c(=O)[nH]c3n2)CC1", "Result": "265.5 to 269.9 °C"}
{"Molecule": "CC(C)S(=O)(=O)N1CCC(Nc2ncc3cc(-c4ccccc4Cl)c(=O)n(C)c3n2)CC1.Cl", "Result": "132 to 136 °C"}
{"Molecule": "O=C1c2ccccc2C(=O)N1CCn1c(=O)c(-c2ccccc2Cl)cc2cnc(N[C@H]3CC[C@H](O)CC3)nc21 (as salt: HCl)", "Result": "208 to 210 °C"}
{"Molecule": "Cl.Cn1c(=O)c(-c2ccccc2Cl)cc2cnc(NC3CCC4(CC3)NC(=O)NC4=O)nc21 (stereo not shown)", "Result": "> 300 °C"}
